Cited source: ChEMBL document CHEMBL3400074

# cytotoxicity at 48 h, 100 µM values compiled below
assay: Cytotoxicity against mouse RAW264.7 cells at 100 uM after 48 hrs by MTT assay; assay type: cell-based; details: read-out: INH

SMILES_INPUT | cytotoxicity at 48 h, 100 µM [%]
NC(=O)c1cc(-c2ccccc2)sc1NC(=O)Nc1ccc([N+](=O)[O-])cc1 | 37.3
CO[C@@H]1[C@@H](OC(N)=O)[C@@H](O)[C@H](Oc2ccc3c(O)c(NC(=O)c4ccc(O)c(CC=C(C)C)c4)c(=O)oc3c2C)OC1(C)C | 81.7
CC(C)NC(=S)Nc1sc(-c2ccccc2)cc1C(N)=O | 35.5
NC(=O)c1cc(-c2ccccc2)sc1NC(=O)c1cccc2ccccc12 | 36.8
NC(=O)c1cc(-c2ccccc2)sc1NC(=O)c1cc2ccccc2[nH]1 | 36.2
NC(=O)c1cc(-c2ccccc2)sc1NC(=O)NCc1ccccc1 | 33
NC(=O)c1cc(-c2ccccc2)sc1NC(=S)Nc1ccc(Cl)cc1 | 36.1
CC(=O)Nc1sc(-c2ccccc2)cc1C(N)=O | 37.5
NC(=O)c1cc(-c2ccccc2)sc1NC(=O)Nc1ccc(Br)cc1 | 37.6
NC(=O)c1cc(-c2ccccc2)sc1NC(=S)Nc1ccccc1 | 32.8
NC(=O)c1cc(-c2ccccc2)sc1NC(=O)c1ccccc1 | 37.6
